Data origin: the supplement of paper PMC10724198

Tested on: Saccharomyces cerevisiae
measurement.notes: protein stability index of tFT-peptide fusion (C-terminal peptide) (PSI (0-1 scale)); higher = more stable (slower turnover)
measurement.parameters: genetic background: das1 deletion; temperature: 30 C
readout.kind: protein stability index

sequence_code="GGIRKISGSIKK [CDC14 C-terminal 12 aa]" target_entity="Saccharomyces cerevisiae" readout_kind="protein stability index" measured_number=0.71
sequence_code="VPEEQRIKRRKI [IRC4 C-terminal 12 aa]" target_entity="Saccharomyces cerevisiae" readout_kind="protein stability index" measured_number=0.705
sequence_code="YLALKWIVVEQK [ADP1 C-terminal 12 aa]" target_entity="Saccharomyces cerevisiae" readout_kind="protein stability index" measured_number=0.521
sequence_code="APEEEAYKPNQN [KRR1 C-terminal 12 aa]" target_entity="Saccharomyces cerevisiae" readout_kind="protein stability index" measured_number=0.708
sequence_code="EFEILDAKKEKD [PIM1 C-terminal 12 aa]" target_entity="Saccharomyces cerevisiae" readout_kind="protein stability index" measured_number=0.699
sequence_code="EKQQRRNMKNAL [RRS1 C-terminal 12 aa]" target_entity="Saccharomyces cerevisiae" readout_kind="protein stability index" measured_number=0.704
sequence_code="NDSEPESEYQQE [CUB1 C-terminal 12 aa]" target_entity="Saccharomyces cerevisiae" readout_kind="protein stability index" measured_number=0.692
sequence_code="LSTWDARTPILD [GPI2 C-terminal 12 aa]" target_entity="Saccharomyces cerevisiae" readout_kind="protein stability index" measured_number=0.705
sequence_code="SVSVQVKWLYSA [YER107W-A C-terminal 12 aa]" target_entity="Saccharomyces cerevisiae" readout_kind="protein stability index" measured_number=0.657
sequence_code="DKEVVYFDEWTI [RPC34 C-terminal 12 aa]" target_entity="Saccharomyces cerevisiae" readout_kind="protein stability index" measured_number=0.726
sequence_code="HFKTLVEAFTRN [VPS52 C-terminal 12 aa]" target_entity="Saccharomyces cerevisiae" readout_kind="protein stability index" measured_number=0.709
sequence_code="NKTNNKKKHGKK [CLU1 C-terminal 12 aa]" target_entity="Saccharomyces cerevisiae" readout_kind="protein stability index" measured_number=0.698
